# target_or_test_system: BRD9-GFP (Homo sapiens)
# Construct: CHYSEL (2A cis-acting hydrolase element) remnant after GFP; mCherry is split off as a separate protein (C); expressed in transfected cells; host or cells: HEK293A cells (Invitrogen R70507), lentiviral transduction with pLenti6-BRD9-GFP-CHYSEL-mCherry, blasticidin selection
# Sequence (Q9H8M2 whole entry): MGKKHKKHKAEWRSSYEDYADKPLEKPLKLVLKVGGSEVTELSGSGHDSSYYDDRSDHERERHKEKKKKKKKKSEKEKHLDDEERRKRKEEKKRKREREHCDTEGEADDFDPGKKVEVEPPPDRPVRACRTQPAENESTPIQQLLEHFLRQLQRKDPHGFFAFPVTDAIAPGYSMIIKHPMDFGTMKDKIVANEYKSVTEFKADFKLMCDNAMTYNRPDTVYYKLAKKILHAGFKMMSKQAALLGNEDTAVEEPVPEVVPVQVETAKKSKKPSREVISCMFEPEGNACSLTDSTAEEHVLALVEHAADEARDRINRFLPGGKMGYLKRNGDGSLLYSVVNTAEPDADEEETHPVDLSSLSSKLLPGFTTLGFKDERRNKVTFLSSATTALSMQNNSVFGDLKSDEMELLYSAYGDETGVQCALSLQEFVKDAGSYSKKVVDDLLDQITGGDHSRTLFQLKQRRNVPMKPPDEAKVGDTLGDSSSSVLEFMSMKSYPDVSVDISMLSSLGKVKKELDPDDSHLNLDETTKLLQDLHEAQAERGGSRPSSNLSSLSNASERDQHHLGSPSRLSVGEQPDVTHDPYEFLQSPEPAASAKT
# test_method_notes: BRD9-GFP protein abundance flow cytometry assay in HEK293A cells
# Type: cell-based
# condition_description: HEK293A-BRD9-GFP-CHYSEL-mCherry cells, 24 h; % protein remaining at the concentration at which maximum degradation is seen
Below, each entry is listed alongside its reported BRD9 Deg Amax %.
Return type: number; implicit unit %.

The examples below pair each entry with its known result.
// BRD9 Deg Amax % lookup, key: "COc1cc(-c2cn(C)c(=O)c3cnccc23)cc(OC)c1CN1CCC(OC2CCN(C(=O)c3ccc(C)c(N4CCC(=O)NC4=O)c3)CC2)CC1"
13.30

Any idea what its BRD9 Deg Amax % is? The molecule is COc1cc(-c2cn(C)c(=O)c3cnccc23)c(OC)cc1CN1CCC(O[C@@H]2CCN(CCn3cccc(CN4CCC(=O)NC4=O)c3=O)C[C@H]2F)CC1 [Compound E2]
12.45

Continuing:
Need BRD9 Deg Amax % of "CCCCn1cc(-c2cc(OC)c(OC3CCN(CC4CCN(C(=O)c5ccc(OC)c(N6CCC(=O)NC6=O)c5)CC4)CC3)c(OC)c2)c2ccncc2c1=O" , thanks.
16.55

BRD9 Deg Amax % lookup needed for "COc1cc(-c2cn(C)c(=O)c3cnccc23)ccc1OC1CCN(CC2CCN(C(=O)c3ccc(OC)c(N4CCC(=O)NC4=O)c3)CC2)CC1" , thanks.
14.01

BRD9 Deg Amax % for "Cn1cc(-c2ccc(CN3CCC(OC4CCN(CCn5cccc(CN6CCC(=O)NC6=O)c5=O)CC4)CC3)cc2)c2ccncc2c1=O" ?
13.77

Using the record for "Cn1cc(-c2cc(F)c(CN3CCC(OC4CCN(CCn5cccc(CN6CCC(=O)NC6=O)c5=O)CC4)CC3)c(F)c2)c2ccncc2c1=O" , report its BRD9 Deg Amax %.
16.66
